biological target: UniProt:O75907; test: Human DGAT1 IC50 enzyme assay (Flashplate, 14C-labeled acyl-CoA); format: biochemical; set-up: made in house; details: average of first and second; read-out: hDGAT1 IC50(nM) Average
ENDPOINT NAME: IC50 (nM)
Give bare numbers, in nM.

Please report IC50 for every entry that follows.
1. Nc1ncnc2c1C(=O)N(c1ccc(-n3ccn(CC(=O)O)c3=O)c(Cl)c1)CCO2
2. CC(C)(CO)Cn1cc(-c2ccc(N3CCOc4ncnc(N)c4C3=O)cc2Cl)cn1
3. Cc1cc(N2CCOc3ncnc(N)c3C2=O)ccc1-c1cnn(C(C(=O)O)C(C)C)c1 (stereo not shown)
4. Cc1cc(N2CCOc3ncnc(N)c3C2=O)cc(C)c1-c1ccc2ccn(CC(F)(F)F)c(=O)c2c1

Result:
41.8
45
80.3
31.7

###

Would you kindly list IC50 for each of these compounds?
target: DGAT1 (Homo sapiens, UniProt O75907); assay: Human DGAT1 IC50 enzyme assay (Flashplate, 14C-labeled acyl-CoA); assay type: biochemical; set-up: made in house; conditions: second determination; read-out: hDGAT1 IC50(nM) Second
One number for each entry, in nM.

Here is how some compounds turned out for IC50.
{"CPD SMILES": "Nc1ncnc2c1C(=O)N(c1ccc(N3CCN(CC(F)(F)F)C3=O)c(Cl)c1)CCO2", "ENDPOINT NAME": "IC50", "MEASURED RESULT": 35.9}
{"CPD SMILES": "CC(C)(Cn1cc(-c2ccc(N3CCOc4ncnc(N)c4C3=O)cc2Cl)cn1)C(=O)N1CCCC1", "ENDPOINT NAME": "IC50", "MEASURED RESULT": 63.7}
{"CPD SMILES": "Cc1cc(N2CCOc3ncnc(N)c3C2=O)cc(C)c1-c1cn(CC(=O)O)nc1C", "ENDPOINT NAME": "IC50", "MEASURED RESULT": 44.3}

Please report IC50 for every entry that follows.
1. Nc1ncnc2c1C(=O)N(c1ccc(-n3ccn(CC(=O)O)c3=O)c(Cl)c1)CCO2
2. Cc1cc(N2CCOc3ncnc(N)c3C2=O)cc(F)c1N1CCN(CC(=O)O)C1=O

Result:
1: 37.9; 2: 60

###

Target: DGAT1 (Homo sapiens)
Sequence (O75907 1-488): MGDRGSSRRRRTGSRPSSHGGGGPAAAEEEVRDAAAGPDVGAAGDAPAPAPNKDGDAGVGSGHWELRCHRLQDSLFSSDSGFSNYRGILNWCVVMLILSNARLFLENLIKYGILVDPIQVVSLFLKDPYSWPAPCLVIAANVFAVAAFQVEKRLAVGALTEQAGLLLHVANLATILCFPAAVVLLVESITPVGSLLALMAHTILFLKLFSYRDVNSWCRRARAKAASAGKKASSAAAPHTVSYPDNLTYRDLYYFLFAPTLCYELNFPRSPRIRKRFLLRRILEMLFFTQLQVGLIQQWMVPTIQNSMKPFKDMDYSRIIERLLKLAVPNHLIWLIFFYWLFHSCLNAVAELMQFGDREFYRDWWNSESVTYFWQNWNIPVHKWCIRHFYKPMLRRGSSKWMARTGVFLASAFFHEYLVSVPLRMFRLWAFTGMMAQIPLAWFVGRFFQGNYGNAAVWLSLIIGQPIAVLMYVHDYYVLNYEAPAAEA
Experiment: Human DGAT1 IC50 enzyme assay (Flashplate, 14C-labeled acyl-CoA)
Assay type: biochemical
Design: made in house
Conditions: first determination; read-out: hDGAT1 IC50(nM) First
Strictly below 50 nM in IC50: t. Otherwise: f.

{"MOLECULE": "Nc1ncnc2c1C(=O)N(c1ccc3c(c1)CCC(OCC(F)(F)F)C3)CCO2 (single isomer, unassigned; peak1) [Compound 105 (peak1)]", "EXPERIMENTAL SYSTEM": "DGAT1 (Homo sapiens)", "GROUP LABEL": "f"}
{"MOLECULE": "CC(C)(C(=O)O)n1cc(-c2ccc(N3CCOc4ncnc(N)c4C3=O)cc2Cl)cn1 [Compound 33]", "EXPERIMENTAL SYSTEM": "DGAT1 (Homo sapiens)", "GROUP LABEL": "t"}
{"MOLECULE": "Nc1ncnc2c1C(=O)N(c1ccc(-c3cnn(CC(=O)O)c3)c(Cl)c1)CCO2 [Compound 56]", "EXPERIMENTAL SYSTEM": "DGAT1 (Homo sapiens)", "GROUP LABEL": "f"}
{"MOLECULE": "CC(C)C(C(=O)O)n1cc(-c2ccc(N3CCOc4ncnc(N)c4C3=O)cc2Cl)cn1 (stereo not shown) [Compound 65]", "EXPERIMENTAL SYSTEM": "DGAT1 (Homo sapiens)", "GROUP LABEL": "t"}
{"MOLECULE": "Nc1ncnc2c1C(=O)N(c1ccc(N3CCN(CC(=O)O)C3=O)c(F)c1)CCO2 [Compound 2]", "EXPERIMENTAL SYSTEM": "DGAT1 (Homo sapiens)", "GROUP LABEL": "f"}
{"MOLECULE": "Nc1ncnc2c1C(=O)N(c1ccc(-c3cnn(CCC(=O)O)c3)c(F)c1)CCO2 [Compound 37]", "EXPERIMENTAL SYSTEM": "DGAT1 (Homo sapiens)", "GROUP LABEL": "f"}

Problem: Given the entry COC(C)(C)Cn1cc(-c2ccc(N3CCOc4ncnc(N)c4C3=O)cc2Cl)cn1 [Compound 94] , would its reported IC50 be below 50 nM?
Result: f

Problem: Given the entry CCn1cc(-c2ccc(N3CCOc4ncnc(N)c4C3=O)cc2Cl)cn1 [Compound 79] , would its reported IC50 be below 50 nM?
Result: t

Problem: Given the entry CCc1cc(N2CCOc3ncnc(N)c3C2=O)cc(C)c1N1CCN(CC(=O)O)C1=O [Compound 4] , would its reported IC50 be below 50 nM?
Result: t
